// data source = patent US20200157236A1

target: T1, human ALK on the surface of NB1 cells (human, UniProt Q9UM73 21-1620); assay: flow cytometry titration on NB1 cells, steady state
T1 construct: ALK of NB1 cells; also called cell surface hALK; NB1 (human)
T1 sequence (Q9UM73 21-1620): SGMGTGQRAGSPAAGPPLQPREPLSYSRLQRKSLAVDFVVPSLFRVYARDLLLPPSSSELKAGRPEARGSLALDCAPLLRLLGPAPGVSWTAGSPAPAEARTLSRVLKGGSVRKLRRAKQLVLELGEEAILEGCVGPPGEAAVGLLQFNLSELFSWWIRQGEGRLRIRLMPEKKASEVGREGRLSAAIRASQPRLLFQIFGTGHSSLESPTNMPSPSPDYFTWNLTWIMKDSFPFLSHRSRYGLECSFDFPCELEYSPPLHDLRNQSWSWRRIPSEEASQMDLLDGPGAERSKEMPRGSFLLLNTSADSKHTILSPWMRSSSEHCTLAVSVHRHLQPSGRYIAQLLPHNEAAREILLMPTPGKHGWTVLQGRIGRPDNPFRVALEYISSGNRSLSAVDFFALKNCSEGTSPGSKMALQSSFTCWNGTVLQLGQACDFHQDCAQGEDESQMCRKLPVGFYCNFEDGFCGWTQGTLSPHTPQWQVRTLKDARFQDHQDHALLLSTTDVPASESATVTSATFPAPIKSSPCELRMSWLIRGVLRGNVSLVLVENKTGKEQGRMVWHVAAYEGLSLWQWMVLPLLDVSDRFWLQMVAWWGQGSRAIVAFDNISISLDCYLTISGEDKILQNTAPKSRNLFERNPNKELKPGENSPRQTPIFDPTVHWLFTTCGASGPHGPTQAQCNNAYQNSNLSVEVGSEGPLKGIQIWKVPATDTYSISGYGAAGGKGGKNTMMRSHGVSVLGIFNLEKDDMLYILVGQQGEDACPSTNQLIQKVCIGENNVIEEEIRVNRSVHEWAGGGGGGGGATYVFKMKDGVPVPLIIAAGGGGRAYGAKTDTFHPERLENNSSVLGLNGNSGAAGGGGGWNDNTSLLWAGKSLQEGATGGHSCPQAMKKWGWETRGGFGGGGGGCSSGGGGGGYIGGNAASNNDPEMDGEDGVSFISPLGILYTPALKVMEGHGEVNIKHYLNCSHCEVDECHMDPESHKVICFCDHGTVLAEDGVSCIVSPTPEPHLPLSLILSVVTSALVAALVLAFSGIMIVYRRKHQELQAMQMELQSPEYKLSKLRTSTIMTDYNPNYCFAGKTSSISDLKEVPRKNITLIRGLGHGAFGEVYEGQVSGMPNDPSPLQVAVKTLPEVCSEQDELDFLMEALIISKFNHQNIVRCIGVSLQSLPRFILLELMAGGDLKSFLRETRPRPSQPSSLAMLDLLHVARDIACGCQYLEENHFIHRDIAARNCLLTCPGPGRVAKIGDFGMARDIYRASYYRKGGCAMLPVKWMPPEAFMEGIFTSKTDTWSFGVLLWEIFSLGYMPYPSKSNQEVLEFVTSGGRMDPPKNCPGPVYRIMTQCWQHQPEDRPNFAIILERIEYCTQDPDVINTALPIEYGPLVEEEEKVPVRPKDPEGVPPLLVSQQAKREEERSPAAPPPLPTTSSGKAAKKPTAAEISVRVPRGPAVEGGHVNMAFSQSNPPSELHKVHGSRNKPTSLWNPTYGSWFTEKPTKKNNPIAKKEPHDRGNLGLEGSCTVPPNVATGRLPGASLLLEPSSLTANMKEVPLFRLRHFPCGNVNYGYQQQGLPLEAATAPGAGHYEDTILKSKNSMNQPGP
Recorded pKd for the following binders
When answering, recall that pKd equals minus log10 of the concentration in mol/L, and write that number alone.

| binder | outcome_measure | recorded_value |
| --- | --- | --- |
| Ab328 (antibody, V domains shown, rodent hybridoma mAb) VH: QVQLQQSGAELAKPGASVKLSCKASGYTFTSYWMHWVKQRPGQGLEWIGYINPSSGYTKYNQKFKDKATLTADKSSSTAYMQLSSLTFEDSAVYYCARDYYGSSSWFAYWGQGTLVTVSA VL: DIVMTQSQKFMSTSVGDRVSVTCKASQNVGTNVAWYQQKPGHSPKALIYSASYRYSGVPDRFTGSGSGTDFTLTISNVQSEDLAEYFCQRYNSYPYMFTFGGGTKLEIKR | pKd | 9.30 |
| Ab323 (antibody, V domains shown, rodent hybridoma mAb) VH: QVQLQQSGAELVKPGASVKISCKTSGYTFSNYWMNWVKQRPGKGLEWIGQIFPGDADANYNGKFKGKATLTADKSSSAAFMQLSSLTSEDSAVYFCARFSYDGAFAYWGQGTLVTVS VL: DIVMTQSHKFMSTSVGDRVSITCKASQDVSTAVAWYQQKPGQSPKPLIYWASTRHTGVPDRFTGSGSGTDYTLTISSVQTEDLALYYCQQHYSTPRTFGGGTKLEIKR | pKd | 10.10 |

// below: pKd requested for another binder
Exercise: Kindly indicate its recorded pKd. Item: Ab326 (antibody, V domains shown, rodent hybridoma mAb) VH: QVQLQQSGAELAKPGASVKLSCKASGYTFTSYWMHWVKQRPGQGLEWIGYIKPSSGYTKYNQKFKDKATLTADKSSSTAYMQLSSLTYEDSAVYYCARDYYGSSSWFAYWGQGTLVTVSA VL: DIVMTQSQRFMSTSVGDRVSVTCKASQNVGTNVAWYQQKPGQSPKALIYSASYRYSGVPDRFTGSGSGTDFTLTISNVQSEDLAEYFCQQYNSYPYMYTFGGGTKLEIKR
Solution: 9.46
